test system: HeLa; experiment: Growth inhibition of human HeLa cells at 50 ug/ml after 72 hrs by spectrophotometric analysis; assay type: functional; conditions: read-out: GI
Give inhibition of growth at 50 µg/mL for every item shown.
Just the number please, in %, no unit attached.

GET /value?item= O=c1c(-c2ccco2)nnc2n1CCN2c1ccccc1Cl &field=inhibition of growth at 50 µg/mL returns 100

GET /value?item= COc1ccccc1N1CCn2c1nnc(-c1ccco1)c2=O &field=inhibition of growth at 50 µg/mL returns 80

GET /value?item= COc1ccc(N2CCn3c2nnc(-c2ccco2)c3=O)cc1 &field=inhibition of growth at 50 µg/mL returns 95

GET /value?item= Cc1ccccc1N1CCn2c1nnc(-c1ccco1)c2=O &field=inhibition of growth at 50 µg/mL returns 50

GET /value?item= O=c1c(-c2ccco2)nnc2n1CCN2c1cccc(Cl)c1 &field=inhibition of growth at 50 µg/mL returns 95

---

Give inhibition at 72 h, 50 ug/ml for every item shown.
assay: Growth inhibition of human HSF cells at 50 ug/ml after 72 hrs by spectrophotometric analysis; type: cell-based; conditions: read-out: GI

GET /value?item= COc1ccc(N2CCn3c2nnc(-c2ccco2)c3=O)cc1 &field=inhibition at 72 h, 50 ug/ml returns 60%

GET /value?item= COc1ccccc1N1CCn2c1nnc(-c1ccco1)c2=O &field=inhibition at 72 h, 50 ug/ml returns 5%

GET /value?item= Cc1ccccc1N1CCn2c1nnc(-c1ccco1)c2=O &field=inhibition at 72 h, 50 ug/ml returns 0%

GET /value?item= O=c1c(-c2ccco2)nnc2n1CCN2c1c(Cl)cccc1Cl &field=inhibition at 72 h, 50 ug/ml returns 15%

GET /value?item= Cc1ccc(N2CCn3c2nnc(-c2ccco2)c3=O)cc1 &field=inhibition at 72 h, 50 ug/ml returns 50%

---

assay: Growth inhibition of human HSF cells at 50 ug/ml after 24 hrs by spectrophotometric analysis; assay type: cell-based; settings: read-out: GI
quantity.name: inhibition at 24 h, 50 ug/ml (%)
Just the number please, in %, no unit attached.

GET /value?item= Cc1ccccc1N1CCn2c1nnc(-c1ccco1)c2=O &field=inhibition at 24 h, 50 ug/ml returns 0

GET /value?item= O=c1c(-c2ccco2)nnc2n1CCN2c1ccccc1Cl &field=inhibition at 24 h, 50 ug/ml returns 10

GET /value?item= COc1ccccc1N1CCn2c1nnc(-c1ccco1)c2=O &field=inhibition at 24 h, 50 ug/ml returns 0

GET /value?item= O=c1c(-c2ccco2)nnc2n1CCN2c1ccc(Cl)cc1 &field=inhibition at 24 h, 50 ug/ml returns 50

GET /value?item= O=c1c(-c2ccco2)nnc2n1CCN2c1c(Cl)cccc1Cl &field=inhibition at 24 h, 50 ug/ml returns 10

GET /value?item= Cc1ccc(N2CCn3c2nnc(-c2ccco2)c3=O)cc1 &field=inhibition at 24 h, 50 ug/ml returns 30

GET /value?item= Cc1cccc(N2CCn3c2nnc(-c2ccco2)c3=O)c1C &field=inhibition at 24 h, 50 ug/ml returns 0

GET /value?item= O=c1c(-c2ccco2)nnc2n1CCN2c1cccc(Cl)c1 &field=inhibition at 24 h, 50 ug/ml returns 25

GET /value?item= COc1ccc(N2CCn3c2nnc(-c2ccco2)c3=O)cc1 &field=inhibition at 24 h, 50 ug/ml returns 10

GET /value?item= O=c1c(-c2ccco2)nnc2n1CCN2c1ccc(Cl)c(Cl)c1 &field=inhibition at 24 h, 50 ug/ml returns 0

GET /value?item= O=c1c(-c2ccco2)nnc2n1CCN2c1ccccc1 &field=inhibition at 24 h, 50 ug/ml returns 50
